In this section we review reported IC50 values for a set of molecules.
# Test system: L1210
# MEASUREMENT_DESCRIPTION: Growth inhibition of mouse L1210 cells
# Format: functional, cell-based
Lab book: enter the figure in µM, no units written.

CC[C@]1(O)C[C@@H]2CN(CCc3c([nH]c4ccccc34)[C@@](C(=O)OC)(c3cc4c(cc3OC)N(C)[C@H]3[C@@](O)(C(=O)OC)[C@H](C(=O)OC)[C@]5(CC)C=CCN6CC[C@]43[C@@H]65)C2)C1; 0.0081
CC[C@]1(O)C[C@@H]2CN(CCc3c([nH]c4ccccc34)[C@@](C(=O)OC)(c3cc4c(cc3OC)N(C)[C@@H]3[C@]45CCN4CC=C[C@@](C)(C[C@]3(O)C(=O)OC)[C@H]45)C2)C1; 0.55
CC[C@]1(O)C[C@@H]2CN(CCc3c([nH]c4ccccc34)[C@@](C(=O)OC)(c3cc4c(cc3OC)N(C)[C@@H]3[C@]45CCN4CC=C[C@@](CC)(C[C@]3(O)C(=O)OC)[C@H]45)C2)C1; 58

Now consider a different molecule.
Observed IC50, L1210, `CC[C@]1(N=C=S)C[C@@H]2CN(CCc3c([nH]c4ccccc34)[C@@](C(=O)OC)(c3cc4c(cc3OC)N(C)[C@H]3[C@@](O)(C(=O)OC)[C@H](OC(C)=O)[C@]5(CC)C=CCN6CC[C@]43[C@@H]65)C2)C1` : 0.59

====

In this section we review reported pIC50 values for a set of molecules.
# Tested on: HCT-116/VM46
# MEASUREMENT_DESCRIPTION: Growth inhibition of human HCT116/VM46 cells
# Assay type: functional, cell-based
The value called pIC50 is obtained by taking minus log10 of the concentration in mol/L.

Field: example entries. Status: answers known.
CC[C@]1(O)C[C@@H]2CN(CCc3c([nH]c4ccccc34)[C@@](C(=O)OC)(c3cc4c(cc3OC)N(C)[C@H]3[C@@](O)(C(=O)OC)[C@H](OC(C)=O)[C@]5(CC)C=CCN6CC[C@]43[C@@H]65)C2)C1 [VINBLASTINE]; 6.22
CC[C@]1(O)C[C@@H]2CN(CCc3c([nH]c4ccccc34)[C@@](C(=O)OC)(c3cc4c(cc3OC)N(C)[C@H]3[C@]5(O)C(=O)N(C)CCC5[C@@H]5CCCN6CC[C@]43C56)C2)C1 (stereo not given in full); 5.18
CC[C@]1(O)C[C@@H]2CN(CCc3c([nH]c4ccccc34)[C@@](C(=O)OC)(c3cc4c(cc3OC)N(C)[C@@H]3[C@]45CCN4CC=C[C@@](CC)(C[C@]3(O)C(=O)OC)[C@H]45)C2)C1; 3.18

Query `CC[C@]1(O)C[C@@H]2CN(CCc3c([nH]c4ccccc34)[C@@](C(=O)OC)(c3cc4c(cc3OC)N(C)[C@@H]3[C@]45CCN4CC=C[C@@H](C[C@]3(O)C(=O)OC)[C@H]45)C2)C1` yields pIC50 of 5.46

====

# System: HCT-116/VM46
# MEASUREMENT_DESCRIPTION: Growth inhibition of human HCT116/VM46 cells
# Assay type: functional, cell-based
In this section we review reported pIC50 values for a set of compounds.
The value called pIC50 is obtained by taking minus log10 of the concentration in mol/L.

CC[C@]1(O)C[C@@H]2CN(CCc3c([nH]c4ccccc34)[C@@](C(=O)OC)(c3cc4c(cc3OC)N(C)[C@@H]3[C@]45CCN4CC=C[C@@](C)(C[C@]3(O)C(=O)OC)[C@H]45)C2)C1; 5.28
CC[C@]1(N=C=S)C[C@@H]2CN(CCc3c([nH]c4ccccc34)[C@@](C(=O)OC)(c3cc4c(cc3OC)N(C)[C@H]3[C@@](O)(C(=O)OC)[C@H](OC(C)=O)[C@]5(CC)C=CCN6CC[C@]43[C@@H]65)C2)C1; 5.15

Query `CC[C@]1(SC#N)C[C@@H]2CN(CCc3c([nH]c4ccccc34)[C@@](C(=O)OC)(c3cc4c(cc3OC)N(C)[C@H]3[C@@](O)(C(=O)OC)[C@H](OC(C)=O)[C@]5(CC)C=CCN6CC[C@]43[C@@H]65)C2)C1` yields pIC50 of 5.54

====

# Test system: L1210
# MEASUREMENT_DESCRIPTION: Growth inhibition of mouse L1210 cells
# Format: functional, cell-based
Label key: True means IC50 under 0.6 µM; False means IC50 of 0.6 µM or more.

The following compounds have reported results that may help.
CC[C@]1(O)C[C@@H]2CN(CCc3c([nH]c4ccccc34)[C@@](C(=O)OC)(c3cc4c(cc3OC)N(C)[C@H]3[C@]5(O)C(=O)N(C)CCC5[C@@H]5CCCN6CC[C@]43C56)C2)C1 (some centres undefined); True
CC[C@]1(O)C[C@@H]2CN(CCc3c([nH]c4ccccc34)[C@@](C(=O)OC)(c3cc4c(cc3OC)N(C)[C@H]3[C@@](O)(C(=O)OC)[C@H](OC(C)=O)[C@]5(CC)C[C@@H](O)CN6CC[C@]43[C@@H]65)C2)C1; False
CC[C@]1(O)C[C@@H]2CN(CCc3c([nH]c4ccccc34)[C@@](C(=O)OC)(c3cc4c(cc3OC)N(C)[C@H]3[C@@](O)(C(=O)OC)[C@H](OC(C)=O)[C@]5(CC)C[C@@H](Cl)CN6CC[C@]43[C@@H]65)C2)C1; False
CC[C@]1(N=[N+]=[N-])C[C@@H]2CN(CCc3c([nH]c4ccccc34)[C@@](C(=O)OC)(c3cc4c(cc3OC)N(C)[C@H]3[C@@](O)(C(=O)OC)[C@H](OC(C)=O)[C@]5(CC)C=CCN6CC[C@]43[C@@H]65)C2)C1; False
CC[C@]1(SC#N)C[C@@H]2CN(CCc3c([nH]c4ccccc34)[C@@](C(=O)OC)(c3cc4c(cc3OC)N(C)[C@H]3[C@@](O)(C(=O)OC)[C@H](OC(C)=O)[C@]5(CC)C=CCN6CC[C@]43[C@@H]65)C2)C1; True

[in] Here's an entry: CC[C@]1(O)C[C@@H]2CN(CCc3c([nH]c4ccccc34)[C@@](C(=O)OC)(c3cc4c(cc3OC)N(C)[C@H]3[C@]5(O)C(=O)N(C)CCC5[C@]5(CC)CCCN6CC[C@]43C65)C2)C1 (some centres undefined) . Is its IC50 below 0.6 µM?
[out] False

[in] Here's an entry: `CC[C@]1(N)C[C@@H]2CN(CCc3c([nH]c4ccccc34)[C@@](C(=O)OC)(c3cc4c(cc3OC)N(C)[C@H]3[C@@](O)(C(=O)OC)[C@H](OC(C)=O)[C@]5(CC)C=CCN6CC[C@]43[C@@H]65)C2)C1` . Is its IC50 below 0.6 µM?
[out] False

====

# Test system: HCT-116/VM46
# MEASUREMENT_DESCRIPTION: Growth inhibition of human HCT116/VM46 cells
# Type: functional, cell-based
OBSERVABLE: IC50 (µM)
Lab book: enter the figure in µM, no units written.

CC[C@]1(O)C[C@@H]2CN(CCc3c([nH]c4ccccc34)[C@@](C(=O)OC)(c3cc4c(cc3OC)N(C)[C@H]3[C@@](O)(C(=O)OC)[C@H](OC(C)=O)[C@]5(CC)C[C@@H](Cl)CN6CC[C@]43[C@@H]65)C2)C1; 8.6

Now consider a different compound.
Query `CC[C@]1(N=[N+]=[N-])C[C@@H]2CN(CCc3c([nH]c4ccccc34)[C@@](C(=O)OC)(c3cc4c(cc3OC)N(C)[C@H]3[C@@](O)(C(=O)OC)[C@H](OC(C)=O)[C@]5(CC)C=CCN6CC[C@]43[C@@H]65)C2)C1` yields IC50 of 5.5

// provenance: ChEMBL document CHEMBL4229541
